Target: T1, cynomolgus monkey HVEM (cynomolgus monkey, UniProt A0A2K5W0R1 39-203); further: test concentration or dose not given here
T1 sequence: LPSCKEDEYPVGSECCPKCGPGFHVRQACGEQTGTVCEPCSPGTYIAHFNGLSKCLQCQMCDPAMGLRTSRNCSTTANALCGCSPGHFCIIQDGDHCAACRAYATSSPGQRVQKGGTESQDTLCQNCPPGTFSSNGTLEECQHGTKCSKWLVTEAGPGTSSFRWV
Experiment: ELISA
measurement.name: ELISA signal
Give bare numbers.

{"binder": "Ab_048 (H5S19-24A22A) (antibody, V domains shown, also called Ab_48) VH: QVQLQQSGGELLRPGTSVKVSCKASGYAFTNYLIEWVKQRPGQGLEWIGVINPGSGGIYYKEKFKDKAILTADKSSSTAYMQLSSLTSDDSAVYFCARGDAMDFWGQGTSVTVSS VL: DAVMTQTPLSLTVSLGDQASISCRSSQTLENTNGNTYLNWYLQKPGQSPQLLIYRVSNRFSGVLDRFSGSGSGTDFTLKISRVEAEDLGVYFCLQVTHVPYTFGGGTKLEIK", "ELISA signal": 0.826}

For each listed entry, give its ELISA signal.
1. Ab_026 (H5S15-11A3B) (antibody, V domains shown, also called Ab_26) VH: EVQLQQSGADLVKPGASVKLSCTASGFNIKDTYMHWVKQRPEQGLEWIGRIAPANGRTKYDPKFQGKATITADTSSNTAYLQLSSLTSEDTAVYYCANYYASSYDWFAYWGQGTLVTVSA VL: DVLMTQTPLSLTVSLGHQASISCRSSQSIVHSNGNTYLEWYLQKPGQSPKLLIYKVSNRFSGVPDRFSGSGSGTDFTLKISRVEAEDLGVYYCFQGSHVPLTFGAGTKLELK
2. Ab_053 (H5S19-20A20A) (antibody, V domains shown, also called Ab_53) VH: QVQLKESGPGLVAPSQSLSITCTVSGFSLTSYGVHWVRQPPGKGLEWLGVIWAGGITNYNSALMSRLSISKDNSKSQVFLKMNSLQTDDTAMYYCARDWERDSSGPFVYWGQGTLVTVSA VL: DIQMTQTTSSLSASLGDRVTISCTASQGISNYLNWYQQKPDGTVKLLIYYTSTLHSGVPSRFSGSGSGTDYSLTISNLEPEDIATYYCQQYFKLPWTFGGGTKLEIK

(A)
0.088
2.1
